Assay: Oral bioavailability
Format: ADME, organism-based
Settings: human, in vivo
measurement-kind: bioavailability (%)

INSERT INTO assay_data (compound, measured_number) VALUES
  ('CCCCC1=NC2(CCCC2)C(=O)N1Cc1ccc(-c2ccccc2-c2nnn[nH]2)cc1 [IRBESARTAN]', 70);

a: CCCCc1ncc(/C=C(\Cc2cccs2)C(=O)O)n1Cc1ccc(C(=O)O)cc1 [EPROSARTAN]
b: CCCCC(=O)N(Cc1ccc(-c2ccccc2-c2nnn[nH]2)cc1)[C@H](C(=O)O)C(C)C
c: Cc1nc(C)c2c(n1)N(Cc1ccc(-c3ccccc3-c3nnn[nH]3)cc1)C(=O)CC2 [TASOSARTAN]
d: CCOc1nc2cccc(C(=O)O)c2n1Cc1ccc(-c2ccccc2-c2nnn[nH]2)cc1
Q. # sort list by recorded bioavailability, greatest to least Provide the ranking by listing each label in its place in the requested order.
A. c, d, b, a
(c: 60%, d: 40%, b: 25%, a: 13%)

====

Target: Type-1 angiotensin II receptor (Homo sapiens) (UniProt P30556)
Test: Time to maximal plasma concentration of the drug in human
measurement-kind: Tmax (h)

Some solved entries appear below for comparison.
INSERT INTO assay_data (molecule, tested_target, measured_number) VALUES
  ('Cc1nc(C)c2c(O)cc(=O)n(Cc3ccc(-c4ccccc4-c4nn[nH]n4)cc3)c2n1', 'Type-1 angiotensin II receptor (Homo sapiens) (UniProt P30556)', 1),
  ('CCCc1nc2c(C)cc(-c3nc4ccccc4n3C)cc2n1Cc1ccc(-c2ccccc2C(=O)O)cc1', 'Type-1 angiotensin II receptor (Homo sapiens) (UniProt P30556)', 1),
  ('CCCCc1nc(Cl)c(C(=O)O)n1Cc1ccc(-c2ccccc2-c2nn[nH]n2)cc1 [CARBOXYLIC ACID METABOLITE]', 'Type-1 angiotensin II receptor (Homo sapiens) (UniProt P30556)', 3),
  ('CCCCc1nc(Cl)c(CO)n1Cc1ccc(-c2ccccc2-c2nnn[nH]2)cc1', 'Type-1 angiotensin II receptor (Homo sapiens) (UniProt P30556)', 1),
  ('CCCCC(=O)N(Cc1ccc(-c2ccccc2-c2nnn[nH]2)cc1)[C@H](C(=O)O)C(C)C', 'Type-1 angiotensin II receptor (Homo sapiens) (UniProt P30556)', 4);

1: Cc1nc(C)c2c(n1)N(Cc1ccc(-c3ccccc3-c3nnn[nH]3)cc1)C(=O)CC2
2: CCCCc1ncc(/C=C(\Cc2cccs2)C(=O)O)n1Cc1ccc(C(=O)O)cc1
Q. Which is greater in Tmax, the first item 1 or the second item 2 ? // caller expects the label of the chosen entry
A. 2

====

Sequence of the target: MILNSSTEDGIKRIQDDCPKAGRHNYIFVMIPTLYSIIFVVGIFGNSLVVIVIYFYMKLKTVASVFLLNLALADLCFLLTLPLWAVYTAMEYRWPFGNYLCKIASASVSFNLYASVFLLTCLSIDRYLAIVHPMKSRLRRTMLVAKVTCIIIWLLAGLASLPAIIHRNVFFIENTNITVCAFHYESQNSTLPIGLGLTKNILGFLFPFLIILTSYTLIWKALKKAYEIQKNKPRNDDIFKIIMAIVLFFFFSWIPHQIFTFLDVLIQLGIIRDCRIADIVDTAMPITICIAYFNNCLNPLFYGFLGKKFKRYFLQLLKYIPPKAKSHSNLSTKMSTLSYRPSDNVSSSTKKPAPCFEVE
measurement-kind: pKa

INSERT INTO measurements (chemical_smiles, measured_number) VALUES
  ('CCOc1nc2cccc(C(=O)O)c2n1Cc1ccc(-c2ccccc2-c2nnn[nH]2)cc1', 3.9),
  ('Cc1nc(C)c2c(n1)N(Cc1ccc(-c3ccccc3-c3nnn[nH]3)cc1)C(=O)CC2', 5),
  ('CCCCC1=NC2(CCCC2)C(=O)N1Cc1ccc(-c2ccccc2-c2nnn[nH]2)cc1', 4.7);

====

Test: Time required for elimination of 50% of the compound
Format: ADME
Details: human
measurement-kind: half-life (h)

Some solved entries appear below for comparison.
INSERT INTO measurements (chemical_smiles, measurement_kind, result_units, measured_number) VALUES
  ('Cc1nc(C)c2c(n1)N(Cc1ccc(-c3ccccc3-c3nnn[nH]3)cc1)C(=O)CC2', 'half-life', 'h', 15),
  ('CCCCc1ncc(/C=C(\Cc2cccs2)C(=O)O)n1Cc1ccc(C(=O)O)cc1', 'half-life', 'h', 7),
  ('CCCCc1nc(Cl)c(CO)n1Cc1ccc(-c2ccccc2-c2nn[nH]n2)cc1', 'half-life', 'h', 3.2);

a: CCCc1nc2c(C)cc(-c3nc4ccccc4n3C)cc2n1Cc1ccc(-c2ccccc2C(=O)O)cc1
b: CCCCC(=O)N(Cc1ccc(-c2ccccc2-c2nnn[nH]2)cc1)[C@H](C(=O)O)C(C)C
Q. Which is greater in half-life, the first item a or the second item b ? // caller expects the label of the chosen entry
A. a
(a: 24 h, b: 6.1 h)

====

Target: Type-1 angiotensin II receptor (Homo sapiens) (UniProt P30556)
Sequence (whole entry): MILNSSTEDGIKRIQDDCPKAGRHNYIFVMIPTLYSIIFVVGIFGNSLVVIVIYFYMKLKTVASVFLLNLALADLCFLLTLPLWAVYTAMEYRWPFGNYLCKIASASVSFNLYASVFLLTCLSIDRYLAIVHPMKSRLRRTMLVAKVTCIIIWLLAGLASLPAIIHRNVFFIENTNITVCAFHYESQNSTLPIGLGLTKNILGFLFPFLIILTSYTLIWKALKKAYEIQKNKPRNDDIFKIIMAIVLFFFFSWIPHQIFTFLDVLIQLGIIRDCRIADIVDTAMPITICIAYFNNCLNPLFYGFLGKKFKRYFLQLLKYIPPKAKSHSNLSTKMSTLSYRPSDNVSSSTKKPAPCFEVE
Test: Binding affinity for AT1 receptor
measurement-kind: Affinity (nM)

Some solved entries appear below for comparison.
INSERT INTO assay_data (compound, tested_target, measurement_kind, measured_number) VALUES
  ('CCOc1nc2cccc(C(=O)O)c2n1Cc1ccc(-c2ccccc2-c2nnn[nH]2)cc1', 'Type-1 angiotensin II receptor (Homo sapiens) (UniProt P30556)', 'Affinity', 0.1),
  ('CCCCc1nc(Cl)c(CO)n1Cc1ccc(-c2ccccc2C(=O)O)cc1', 'Type-1 angiotensin II receptor (Homo sapiens) (UniProt P30556)', 'Affinity', 230),
  ('CCCCC(=O)N(Cc1ccc(-c2ccccc2-c2nnn[nH]2)cc1)[C@H](C(=O)O)C(C)C', 'Type-1 angiotensin II receptor (Homo sapiens) (UniProt P30556)', 'Affinity', 1.7),
  ('CCCCc1nc(Cl)c(CO)n1Cc1ccc(-c2ccccc2-c2nnn[nH]2)cc1', 'Type-1 angiotensin II receptor (Homo sapiens) (UniProt P30556)', 'Affinity', 6.4);

1: CCc1nc2c(C)cc(C)nc2n1Cc1ccc(-c2ccccc2-c2nn[nH]n2)cc1
2: CCCCc1ncc(/C=C(\Cc2cccs2)C(=O)O)n1Cc1ccc(C(=O)O)cc1
3: CCCCC1=NC2(CCCC2)C(=O)N1Cc1ccc(-c2ccccc2-c2nnn[nH]2)cc1
Q. # sort list by recorded Affinity, greatest to least Provide the ranking by listing each label in its place in the requested order.
A. 2, 3, 1
(2: 9.2 nM, 3: 1.3 nM, 1: 0.5 nM)

====

Target: Type-1 angiotensin II receptor (Homo sapiens)
measurement-kind: pKa

Some solved entries appear below for comparison.
INSERT INTO measurements (compound, measured_number) VALUES
  ('CCCc1nc2c(C)cc(-c3nc4ccccc4n3C)cc2n1Cc1ccc(-c2ccccc2C(=O)O)cc1', 4.5),
  ('CCCCc1nc(Cl)c(CO)n1Cc1ccc(-c2ccccc2-c2nnn[nH]2)cc1', 4.9);

a: CCCCc1ncc(/C=C(\Cc2cccs2)C(=O)O)n1Cc1ccc(C(=O)O)cc1 [EPROSARTAN]
b: CCCCc1nc(Cl)c(C(=O)O)n1Cc1ccc(-c2ccccc2-c2nn[nH]n2)cc1 [CARBOXYLIC ACID METABOLITE]
Q. Compare pKa: is it lower for a or for b ? // caller expects the label of the chosen entry
A. b
(b: 2.8, a: 5)

====

Assay: Time required for elimination of 50% of the compound
Assay type: ADME
Settings: human
measurement-kind: half-life (h)

INSERT INTO measurements (molecule, measurement_kind, measured_number) VALUES
  ('CCOc1nc2cccc(C(=O)O)c2n1Cc1ccc(-c2ccccc2-c2nnn[nH]2)cc1', 'half-life', 11),
  ('CCCCC1=NC2(CCCC2)C(=O)N1Cc1ccc(-c2ccccc2-c2nnn[nH]2)cc1', 'half-life', 21);

a: Cc1nc(C)c2c(O)cc(=O)n(Cc3ccc(-c4ccccc4-c4nnn[nH]4)cc3)c2n1
b: CCCCc1nc(Cl)c(C(=O)O)n1Cc1ccc(-c2ccccc2-c2nn[nH]n2)cc1 [CARBOXYLIC ACID METABOLITE]
Q. Compare half-life: is it lower for a or for b ? // caller expects the label of the chosen entry
A. b
